Source listed as paper PMC5154195.

List of IC50 values.
Tested on: MCF-7 (human breast adenocarcinoma) cells
METHOD_NOTES: MTT cell viability assay, MCF-7
Assay type: cell-based
EXPERIMENTAL_PARAMETERS: MCF-7, MTT, 44 h + 4 h MTT; read-out: IC50 (50% inhibition of cell viability)

{"COMPOUND": "O=C([O-])c1cc[n+]2c(c1)-c1cc(C(=O)O)cc[n+]1[Ir-3]213([c]2ccccc2-c2cccc[n+]21)[c]1ccccc1-c1cccc[n+]13", "IC50": "> 100 µM"}
{"COMPOUND": "O=C([O-])c1cc[n+]2c(c1)-c1cc(C(=O)O)cc[n+]1[Ir-3]213([c]2cc(F)cc(F)c2-c2cccc[n+]21)[c]1cc(F)cc(F)c1-c1cccc[n+]13", "IC50": "> 100 µM"}
{"COMPOUND": "N.N.[Cl][Pt][Cl] [cisplatin, reference compound]", "IC50": "16.8 µM"}

###

System: HeLa (human cervical cancer) cells
METHOD_NOTES: MTT cell viability assay, HeLa
Assay type: cell-based
EXPERIMENTAL_PARAMETERS: 44 h + 4 h MTT, read-out: IC50 (50% inhibition of cell viability)
Experimental: HeLa, A549, A549R, MCF-7 and HepG2 cells were obtained from Experimental Animal Centre of Sun Yat-Sen University (Guangzhou, China). […] The cytotoxicity of the tested complexes towards different cell lines was determined by MTT assay. […] The absorbance at 595 nm was measured by a microplate reader.
pIC50: −log10 of the molar value.

{"COMPOUND": "O=C([O-])c1cc[n+]2c(c1)-c1cc(C(=O)O)cc[n+]1[Ir-3]213([c]2ccccc2-c2cccc[n+]21)[c]1ccccc1-c1cccc[n+]13 [Complex 1a, Ir(ppy)2(Hdcbpy)]", "TARGET_OR_TEST_SYSTEM": "HeLa (human cervical cancer) cells", "pIC50": "< 4.00"}
{"COMPOUND": "O=C([O-])c1cc[n+]2c(c1)-c1cc(C(=O)O)cc[n+]1[Ir-3]213([c]2cc(F)cc(F)c2-c2cccc[n+]21)[c]1cc(F)cc(F)c1-c1cccc[n+]13 [Complex 1b, Ir(dfppy)2(Hdcbpy)]", "TARGET_OR_TEST_SYSTEM": "HeLa (human cervical cancer) cells", "pIC50": "< 4.00"}
{"COMPOUND": "N.N.[Cl][Pt][Cl] [cisplatin, reference compound]", "TARGET_OR_TEST_SYSTEM": "HeLa (human cervical cancer) cells", "pIC50": 4.60}
